# method: protein stability index of a GFP-peptide fusion (GPS, HEK-293T) (PSI 1-6); higher = more stable;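 also: 24-mer peptide tiles fused after GFP, lentivirally expressed, FACS-sorted into six equal bins by GFP/DsRed ratio, decoded by Illumina sequencing, PSI is the read-weighted mean bin number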
# testSettings: treatment: MLN4924 1 uM, 8 h; c terminus: a fixed tail appended
# binarize protein stability index: threshold 4 inclusive, high side Met, low side Not met

Worked examples, 6 sequences total:
RHLRSAHRRELESSGAGSSPPAAP [ZBED3] : Met
PARDYVVLRTWRTNLPKGACALLL [DLC1] : Not met
EGLELTEQTFSPAKSLSFRKGELV [ADD1] : Met
TPLIQQRARDSPEPGAGLGIGDMA [PSD2] : Met
ELEKNFSNFPRQYFALRKILKQLI [TRIM39] : Not met
TGELETLKERCAQDACQAQAREKE [CCDC89] : Met

Check this sequence for protein stability index at or above 4: YDPFRDAVTLRCGHNFCRGCVSRC [TRIM35]
Not met

Check this sequence for protein stability index at or above 4: YRKQNAYIATQGSLPETFGDFWRM [PTPRD]
Not met

Check this sequence for protein stability index at or above 4: AEDYLTWKEWGFTGVQEVLSALLR [SPAG8]
Not met

Check this sequence for protein stability index at or above 4: IEDLEVTCTWKLPTLAKFSPYLGQ [PRAME]
Not met

====

# method: protein stability index of a GFP-peptide fusion (GPS, HEK-293T) (PSI 1-6); higher = more stable
# testSettings: treatment: DMSO; c terminus: a fixed tail appended
endpointLabel: protein stability index
Lab note: jot the number down without any unit.

Solved entries (count: 3):
PTPVGAVQQDPALSSNREAHQHRD [CSNK1G3] : 5.37
EMMRFIYTGRAPNLDKMADNLLAA [SPOPL] : 2.42
ASGHEPGGSAVCASRVKLQHLPAQ [PLEKHN1] : 4.11

Value lookup for protein stability index; key = VQLIWVVSQLYPESIVPIPSSNEE [INTS4]
3.07

Value lookup for protein stability index; key = CGKSFSRSSHLVIHERTHERERLY [ZNF263]
2.71

====

# method: protein stability index of a GFP-peptide fusion (GPS, HEK-293T) (PSI 1-6); higher = more stable
# testSettings: treatment: DMSO; c terminus: a fixed tail appended
# binarize protein stability index: threshold 3 inclusive, high side y, low side n

VPWESDIWDINNQICTVKDIKAEP [ATF6] : y

Check this sequence for protein stability index at or above 3: FYTAITKKIFKSHLKSSRNSTSVK [P2RY14]
n

Check this sequence for protein stability index at or above 3: LIANRSYKVSAASSFFFSGVFVGV [SLC22A15]
n

Check this sequence for protein stability index at or above 3: QLDMFYRNWALKESFIKAIGVGLG [AASDHPPT]
n

Check this sequence for protein stability index at or above 3: RHLTSRHQEAEMAQNAVRLHYGLP [CTNNB1]
y

Check this sequence for protein stability index at or above 3: SYAFPKEFPYRMNHILECEFYLLE [CCNC]
n

Check this sequence for protein stability index at or above 3: LKEAPVQDQGYKTLRLRENCVLSS [ZNF8]
y

Check this sequence for protein stability index at or above 3: YILLVGYPPFWDEDQHRLYQQIKA [CAMK2D]
n

Check this sequence for protein stability index at or above 3: KSRRKAALSSPRSRKNATQPPNAE [INTS3]
y

Check this sequence for protein stability index at or above 3: PPLPLHPGGDQGGPPVGPLSLGLA [WAS]
y
